Reference source for all entries: ChEMBL document CHEMBL3045276

System: Brassica rapa subsp. oleifera
Method Notes: Herbicidal activity against Brassica rapa subsp. oleifera assessed as inhibition of root growth at 100 ug/mL at 28 degC
Format: functional
Measure: inhibition at 100 µg/mL (%)

- Cc1ccnc(N2CCN(Cn3nc(C(F)(F)F)n(/N=C/c4ccccc4[N+](=O)[O-])c3=S)CC2)n1: 0
- Cc1cc(C)nc(N2CCN(Cn3nc(C(F)(F)F)n(/N=C/c4ccccc4[N+](=O)[O-])c3=S)CC2)n1: 11.2
- Cc1cc(C)nc(N2CCN(Cn3nc(C(F)(F)F)n(/N=C/c4ccccc4F)c3=S)CC2)n1: 72.4

* * *

System: Pseudomonas amygdali pv. lachrymans
Method Notes: Fungicidal activity against Pseudomonas syringae pv. lachrymans in cucumber plant two seed leaves stage assessed as control efficacy from disease indices at 500 ug/mL at 18 to 30 degC and above 80%RH relative to control
Type: functional
Conditions: read-out: GI
Measure: inhibition of growth at 500 µg/mL (%)

* COc1ccc(/C=N/n2c(C(F)(F)F)nn(CN3CCN(c4nccc(C)n4)CC3)c2=S)cc1 | 30.6
* Cc1cc(C)nc(N2CCN(Cn3nc(C(F)(F)F)n(/N=C/c4ccc(C)c(C)c4)c3=S)CC2)n1 | 59.5
* COC(=O)NC(=S)Nc1ccccc1NC(=S)NC(=O)OC [THIOPHANATE METHYL] | 54.2
* Cc1ccnc(N2CCN(Cn3nc(C(F)(F)F)n(/N=C/c4ccccc4F)c3=S)CC2)n1 | 62.3
* Cc1cc(C)nc(N2CCN(Cn3nc(C(F)(F)F)n(/N=C/c4ccc(Cl)cc4)c3=S)CC2)n1 | 61.5
* Cc1ccc(/C=N/n2c(C(F)(F)F)nn(CN3CCN(Cn4nc(C(F)(F)F)n(/N=C/c5ccc(C)c(C)c5)c4=S)CC3)c2=S)cc1C | 36.7
* Fc1ccccc1/C=N/n1c(C(F)(F)F)nn(CN2CCN(c3ncccn3)CC2)c1=S | 45.4
* FC(F)(F)c1nn(CN2CCN(Cn3nc(C(F)(F)F)n(/N=C/c4ccccc4)c3=S)CC2)c(=S)n1/N=C/c1ccccc1 | 56.4
* COc1ccc(/C=N/n2c(C(F)(F)F)nn(CN3CCN(Cn4nc(C(F)(F)F)n(/N=C/c5ccc(OC)cc5)c4=S)CC3)c2=S)cc1 | 55.6
* COc1ccc(/C=N/n2c(C(F)(F)F)nn(CN3CCN(c4ncccn4)CC3)c2=S)cc1 | 68.1
* COc1ccc(C(=CC(=O)N2CCOCC2)c2ccc(Cl)cc2)cc1OC | 14
* Cc1ccnc(N2CCN(Cn3nc(C(F)(F)F)n(/N=C/c4ccccc4)c3=S)CC2)n1 | 20.4
* FC(F)(F)c1nn(CN2CCN(c3ncccn3)CC2)c(=S)n1/N=C/c1ccccc1 | 55.8
* CC(C)NC(=O)N1CC(=O)N(c2cc(Cl)cc(Cl)c2)C1=O | 38.5
* Cc1ccnc(N2CCN(Cn3nc(C(F)(F)F)n(/N=C/c4ccccc4[N+](=O)[O-])c3=S)CC2)n1 | 44.5
* Cc1ccnc(N2CCN(Cn3nc(C(F)(F)F)n(/N=C/c4ccc(Cl)cc4)c3=S)CC2)n1 | 21.1
* Cc1cc(C)nc(N2CCN(Cn3nc(C(F)(F)F)n(/N=C/c4ccccc4)c3=S)CC2)n1 | 55
